I'd be grateful if you could share measured Ki for these entries.
Target: human GABAA α2β2γ1 receptor (Homo sapiens (Human), UniProt P47869+Q8N1C3)
Test: Radioligand binding assay for γ1-containing GABAA subtypes, [3H]RO7239181 competition (α2β2γ1)
Conditions: Ki h-GABAA α2β2γ1, displacement of [3H]RO7239181, membranes of HEK293F cells expressing human receptors, means of two determinations
A complete answer gives the number followed by the unit.

Give the measured Ki of OCc1cn2c(n1)CN=C(c1c(F)cccc1F)c1c-2ccc(Br)c1Cl .
8.8 nM

Entry [2H]C([2H])([2H])OC1CN(C(=O)c2nc3n(n2)-c2ccc(C(F)(F)F)c(Cl)c2C(c2ncccc2F)=N[C@H]3C)C1 has what Ki?
37.3 nM

Name the recorded Ki for C[C@@H]1N=C(c2c(F)cccc2F)c2c(ccc(Cl)c2Cl)-n2nc(C(N)=O)nc21 .
6.53 nM

I would be grateful if you could share the reported Ki for Cc1c(C(=O)NC[C@@H](C)O)nc2n1-c1ccc(C(F)(F)F)c(Cl)c1C(c1ncccc1F)=N[C@H]2C .
55.7 nM
